system: K4 kissing-loop RNA reporter; experiment: apparent KD of K4 kissing-loop reporter; higher = weaker reporter binding; details: Eterna round: R107; input ligand: none;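 also: bound reporter read as fluorescence of individual clusters on recovered sequencing chips by microscopy, with normalized cluster intensities fitted with a binding model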
Kindly state apparent KD of K4 kissing-loop reporter for each of the entries shown.
Give bare numbers, in nM.

Previously resolved entries follow.
| seqText | apparent KD of K4 kissing-loop reporter [nM] |
| --- | --- |
| GCCGUAGAUUGAAGGAGCGUUCUUACUGAUUACGGCAGCCGGAAGUGAUGUUUCCAGGUGGAACAGGUAGGUCGCAAUCUACGGC | 96 |
| UGUAUGUGAUUUGAUACCAGACCAGCUGGUGGUAUAUGAGUGAUGUUCAUGUUGGUGUGGGUCCCUUGGCAGCAAAUCGCAUACU [KL-SSTheoB9] | 237 |
| AGCGAUGUUUUCUCUAAGAGUGAUGUUUUUCGAGGACCGGUACGGCCGCCACUCGAAUAAAGAGUGUGGUAGUGAGCUGUUGACU [qqmullin] | 451 |

Recorded apparent KD of K4 kissing-loop reporter (sequence UAACCGCAGAAAGAUACCAGUGAGUGAUGUUCCUCGAUCCUGUGGUUCAUUCUCUUUACCCACCCUUGGCAGCUUCAAAUGUGAC [theeternabot_exclusion_KL_Theo_B_4] ): 850
